Biological target: Cholinesterase (Homo sapiens, UniProt P06276)
Sequence (P06276 whole entry): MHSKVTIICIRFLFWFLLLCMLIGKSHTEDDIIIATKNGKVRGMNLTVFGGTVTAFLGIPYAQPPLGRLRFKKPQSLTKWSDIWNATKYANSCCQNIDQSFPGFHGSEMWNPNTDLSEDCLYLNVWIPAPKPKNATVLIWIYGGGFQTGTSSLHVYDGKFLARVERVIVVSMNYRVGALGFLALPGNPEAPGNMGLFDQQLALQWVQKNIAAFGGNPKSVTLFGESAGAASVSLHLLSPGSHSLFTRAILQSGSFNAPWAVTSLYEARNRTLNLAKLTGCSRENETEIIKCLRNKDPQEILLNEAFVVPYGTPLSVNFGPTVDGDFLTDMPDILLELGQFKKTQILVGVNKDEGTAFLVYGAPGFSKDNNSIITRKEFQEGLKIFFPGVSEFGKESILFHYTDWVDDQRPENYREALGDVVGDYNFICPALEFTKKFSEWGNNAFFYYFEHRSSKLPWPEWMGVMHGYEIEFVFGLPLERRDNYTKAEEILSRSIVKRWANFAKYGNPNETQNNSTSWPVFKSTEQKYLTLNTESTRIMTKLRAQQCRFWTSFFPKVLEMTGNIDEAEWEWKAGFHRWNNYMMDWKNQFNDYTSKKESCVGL
Test: Inhibition of human serum BChE using BTCh as substrate preincubated for 20 mins followed by substrate addition and measured for 3 mins by Ellman's method
QUANTITY: pIC50
Entry type: numeric. Quantity: pIC50, the -log10 of concentration in molar units.

Here is how some compounds turned out for pIC50.
>  <COMPOUND>
O=C(Nc1ccc(-c2cn(CCNc3c4c(nc5ccccc35)CCCC4)nn2)cn1)Nc1cccc2c1C1CCCCN1C2=O (racemic)

>  <TEST SYSTEM>
Cholinesterase (Homo sapiens, UniProt P06276)

>  <MEASURED RESULT>
6.73

$$$$
>  <COMPOUND>
O=C(Nc1cc(-c2cn(CCNc3c4c(nc5ccccc35)CCCC4)nn2)ccn1)Nc1cccc2c1C1CCCCN1C2=O (racemic)

>  <TEST SYSTEM>
Cholinesterase (Homo sapiens, UniProt P06276)

>  <MEASURED RESULT>
6.52

$$$$
>  <COMPOUND>
O=C(Nc1cc(CCc2cn(CCNc3c4c(nc5ccccc35)CCCC4)nn2)ccn1)Nc1cccc2c1C1CCCCN1C2=O (racemic)

>  <TEST SYSTEM>
Cholinesterase (Homo sapiens, UniProt P06276)

>  <MEASURED RESULT>
7.18

$$$$

Asked: Param item = "O=C(Nc1cc(-c2cn(CCNc3c4c(nc5ccccc35)CCCC4)nn2)ccn1)Nc1cccc2c1[C@@H]1CCCCN1C2=O" ; retrieve measured pIC50.
Given back: 6.60

Source: ChEMBL document CHEMBL4390652
